# study_system: L-lactate dehydrogenase (Plasmodium falciparum (isolate CDC / Honduras))
# assay_remarks: PfLDH activity inhibition – cell lysate, 3D7 strain, counter-screen for P. falciparum growth inhibition project (AID 2304);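 further: 0% = vehicle and 100% = reference inhibitor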
# measurement_setup: P. falciparum 3D7 crude extract, LDH APAD/NBT absorbance; at 2 µM; hits give high values
inhibition values, listed per item
// note: answer is a bare numeric in %

Entry "CN1C(=C2SC(=Nc3ccc4ncccc4c3)N(Cc3ccccc3)C2=O)Sc2ccc(Cl)cc21" — recorded inhibition = -2

----------
# assay_remarks: HepG2 cytotoxicity, primary screen, cytotoxicity control for P. falciparum antimalarial project, cell-based, ATP luminescence (AID 2303);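 further: 0% = DMSO wells and 100% = digitonin-killed cells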
# measurement_setup: HepG2 viability, 24-48 h, at 10 µM, hits give high values
measurement_name: inhibition (%)
// note: answer is a bare numeric in %

As a guide, the following entries are already answered.
molecule | inhibition / %
N#Cc1ccccc1C1CCN(C2CCC(Nc3cc(-c4cccnc4)ccn3)CC2)CC1 (stereo not given) | 38
CN1CCC(N2CCN(Cc3cccc(-c4ccc(-c5nc6ccc(C(F)(F)F)cc6[nH]5)cc4)c3)CC2)CC1 | 100

Entry "Cn1c(Cc2ccccc2)nnc1Sc1ccc(C#N)c([N+](=O)[O-])c1" — recorded inhibition = -5

Entry "Nc1ccc2c(N)c3ccccc3nc2c1" — recorded inhibition = 20

Entry "Cc1cc(NN=Cc2cccc(F)c2)c2ccc(F)cc2n1" — recorded inhibition = 2

Cited source for all entries: PubChem BioAssay
